Experiment: protein stability index of a GFP-peptide fusion (GPS, HEK-293T) (PSI 1-6); higher = more stable;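 note: 24-mer peptide tiles fused after GFP, lentivirally expressed, FACS-sorted into six equal bins by GFP/DsRed ratio, decoded by Illumina sequencing, PSI is the read-weighted mean bin number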
Measurement Conditions: treatment: MLN4924 1 uM, 8 h; c terminus: a fixed tail appended
Form field: protein stability index (one value per entry).

# Sequence Chain, protein stability index
records = [
    ("HVTNAMVLVNVLQAIYVIDFFWNE [DHCR7]", 2.99),
    ("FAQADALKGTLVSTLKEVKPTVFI [ACSBG2]", 3.04),
    ("LYTGELDENERDLMHIAHIAELLE [RHOBTB2]", 3.09),
    ("GREVELKPYIAAHFDVLPTEFTLG [PTPRD]", 3),
]
